# testDescription: Mean retention time in rat at 2 mg/kg, po
# Type: ADME, organism-based
# Design: dose 2 mg/kg, route oral
# conditionInfo: in vivo
parameter: MRT (h)
The answer is to be given in h; state only the numeric part.

Task: Quick check: MRT of CCCCC1C(=O)N(C[C@H]2CC[C@H](OCC)CC2)CCC12CCN(C1(C)CCN(C(=O)c3c(C)ncnc3C)CC1)CC2 (stereo partly specified) ?
Result: 4.33

###

Reported pIC50 values follow for various compounds
# targetSystem: C-C chemokine receptor type 5 (Homo sapiens)
# Sequence (P51681 whole entry): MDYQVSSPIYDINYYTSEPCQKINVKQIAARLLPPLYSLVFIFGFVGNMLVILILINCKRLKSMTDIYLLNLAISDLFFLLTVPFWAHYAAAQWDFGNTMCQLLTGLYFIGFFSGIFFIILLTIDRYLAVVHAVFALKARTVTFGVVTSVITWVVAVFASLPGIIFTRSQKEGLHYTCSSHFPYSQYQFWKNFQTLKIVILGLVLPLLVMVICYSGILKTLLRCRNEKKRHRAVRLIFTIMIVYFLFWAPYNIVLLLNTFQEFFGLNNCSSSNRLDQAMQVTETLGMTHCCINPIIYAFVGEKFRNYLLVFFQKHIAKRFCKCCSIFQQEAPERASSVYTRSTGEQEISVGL
As a rule, pIC50 stands for the negative log10 of the concentration, concentration in M.

1. CCCCC1CN(S(=O)(=O)C2CC2)CCC12CCN(C1(C)CCN(C(=O)c3c(C)ncnc3C)CC1)CC2 (centres undefined)
7.66
2. CCCCC1CN(S(=O)(=O)c2ccccc2)CCC12CCN(C1(C)CCN(C(=O)c3c(C)ncnc3C)CC1)CC2 (centres undefined)
7.72
3. CCCC[C@H]1CN(C(=O)NC)CCC12CCN(C1(C)CCN(C(=O)c3c(C)ncnc3C)CC1)CC2
7.46
4. CCCCC1CN(S(=O)(=O)C2CCN(C(C)=O)CC2)CCC12CCN(C1(C)CCN(C(=O)c3c(C)ncnc3C)CC1)CC2 (centres undefined)
7.11
5. CCCCC1CN(S(=O)(=O)N2CCOCC2)CCC12CCN(C1(C)CCN(C(=O)c3c(C)ncnc3C)CC1)CC2 (centres undefined)
7.96
6. CCCCC1C(=O)N(CC2CCN(CC(F)F)CC2)CCC12CCN(C1(C)CCN(C(=O)c3c(C)ncnc3C)CC1)CC2 (centres undefined)
7.15
7. CCCCC1C(=O)N(C[C@H]2CC[C@H](O)CC2)CCC12CCN(C1(C)CCN(C(=O)c3c(C)cc(C#N)nc3C)CC1)CC2 (some centres undefined)
7.51
8. CCCCC1CN(S(=O)(=O)C2CCN(C=O)CC2)CCC12CCN(C1(C)CCN(C(=O)c3c(C)ncnc3C)CC1)CC2 (centres undefined)
7.19

Task: Param readout = pIC50; param system = C-C chemokine receptor type 5 (Homo sapiens); param query = CCCCC1CN(C(=O)C2CCOCC2)CCC12CCN(C1(C)CCN(C(=O)c3c(C)cc(C#N)nc3C)CC1)CC2 (centres undefined) ; response: value
Result: 6.66

Task: Observed pIC50 on C-C chemokine receptor type 5 (Homo sapiens) for Cc1ncnc(C)c1C(=O)N1CCC(C)(N2CCC3(CC2)CCN(S(C)(=O)=O)CC3c2ccccc2)CC1 (centres undefined) , please.
Result: 6.98

Task: Request - read-out pIC50 | tested on C-C chemokine receptor type 5 (Homo sapiens) | compound CCCCC1CN(S(=O)(=O)c2cn(C)cn2)CCC12CCN(C1(C)CCN(C(=O)c3c(C)ncnc3C)CC1)CC2 (centres undefined)
Result: 7.57

Task: Item CCCCC1CN(S(C)(=O)=O)CCC12CCN(C1(C)CCN(C(=O)c3c(C)ncnc3C)CC1)CC2 (centres undefined) with C-C chemokine receptor type 5 (Homo sapiens) - pIC50?
Result: 7.60

###

# targetSystem: UniProtKB P51684
# Sequence (P51684 whole entry): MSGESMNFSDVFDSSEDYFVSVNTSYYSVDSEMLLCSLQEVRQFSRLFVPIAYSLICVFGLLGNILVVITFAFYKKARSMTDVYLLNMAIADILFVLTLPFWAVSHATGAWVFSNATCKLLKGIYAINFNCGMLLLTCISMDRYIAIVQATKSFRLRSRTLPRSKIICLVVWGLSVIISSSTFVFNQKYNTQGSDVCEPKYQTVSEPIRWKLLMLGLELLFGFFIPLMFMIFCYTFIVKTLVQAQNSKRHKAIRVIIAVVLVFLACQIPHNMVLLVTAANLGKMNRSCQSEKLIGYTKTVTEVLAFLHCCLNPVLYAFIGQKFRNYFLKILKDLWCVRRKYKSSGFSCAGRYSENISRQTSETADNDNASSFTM
pIC50: −log10 of the molar value.
parameter: pIC50

Task: Could you tell me which pIC50 is on file for CCCCC1C(=O)N(C[C@H]2CC[C@H](OCC)CC2)CCC12CCN(C1(C)CCN(C(=O)c3c(C)ncnc3C)CC1)CC2 (stereo partly specified) ?
Result: < 4.30
